Where these numbers come from: the supplement of paper PMC7695840

Attribute: normalized DsRed fluorescence
Test system: Staphylococcus aureus MW2 (mecA+)
Assay Method Text: normalized DsRed fluorescence (growth of mecA+ strain) (fraction of control range); higher = more growth of mecA+ strain
Measurement Parameters: compound concentration: 150 uM; cefoxitin: subinhibitory; fluorescent label: DsRed
Form field (numeric): enter value without unit.

The following compounds have reported results that may help.
1) O=C(O)CCCC[C@@H]1SC[C@@H]2NC(=O)N[C@@H]21 = 0.604
2) NS(=O)(=O)c1cc(C2(O)NC(=O)c3ccccc32)ccc1Cl (stereo not drawn) = 0.584

normalized DsRed fluorescence for CC(=O)Oc1cccc(O)c1 is 0.584
